target: Fibroblast growth factor 10 (Homo sapiens) (UniProt O15520); experiment: FGF10 binders on small-molecule microarrays, primary screen, biochemical, small-molecule microarray, 635 nm fluorescence (AID 1102); settings: FGF10 binding, fluorescence 635 nm, higher = more signal
Sequence (O15520 whole entry, looked up): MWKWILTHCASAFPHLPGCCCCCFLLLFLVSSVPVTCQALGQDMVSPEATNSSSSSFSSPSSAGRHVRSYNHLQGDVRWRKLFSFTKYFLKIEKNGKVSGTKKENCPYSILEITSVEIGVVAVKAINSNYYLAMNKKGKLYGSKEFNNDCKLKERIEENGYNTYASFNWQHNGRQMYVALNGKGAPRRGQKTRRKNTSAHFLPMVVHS

# COMPOUND, composite z-score
measured = [
    ("C=CC[C@@]1(C(=O)NCc2ccccc2)N=C(c2ccc(OCCCO)cc2)O[C@@H]1c1ccccc1N=[N+]=[N-]", 1.22),
    ("C[C@@H]1ON(c2cccc(C(=O)OC(C)(C)C)c2)[C@H](c2ccc(Br)cc2)[C@H]1C(=O)N1C(=O)OC[C@H]1Cc1ccccc1", 1.15),
    ("CC1CC/C=C\\[C@H]2OC34C=CCN(Cn5nnc6ccccc65)C(=O)[C@H]3N(C(CO)C(C)C)C(=O)[C@@H]4C2C(=O)O1 (some centres not stated)", -0.103),
    ("CCOC(=O)C[C@H]1[C@H](OC(=O)Cc2ccc3c(c2)OCO3)[C@@H](NC(=O)c2ccc(-c3ccccc3)cc2)c2cc(OCCCO)ccc2N1C(=O)c1ccc2ccccc2n1", 0.556),
    ("COC(=O)c1c(CC[C@@H](CO)NC(=O)N2CCC[C@H]2Cn2cc(-c3ccccn3)nn2)oc(C(C)=O)c1C(=O)OC", 0.0437),
    ("CN1C(=O)C2C=CC(C(O)c3cccs3)N(Nc3ccccc3)C2C1=O (configuration not stated)", 0.765),
    ("COc1ccc(COC2OC[C@]3(C)[C@H]4C5=C(CN3C(=O)OC(C)(C)C)[C@H](C)C(CO)C(CO)C5CC[C@@H]24)cc1 (some centres not stated)", 0.755),
    ("CCCCN1CC=CC23O[C@@H]4/C=C\\CCC(C)OC(=O)C4[C@H]2C(=O)N(CCCCCO)[C@@H]3C1=O (some centres not stated)", -1.28),
    ("COc1ccc(C(O)C2C=CC3C(=O)N(c4ccccc4)C(=O)C3N2Nc2ccc(C(C)C)cc2)cc1OCc1ccccc1 (configuration not stated)", 0.889),
    ("CC1CC/C=C\\[C@H]2OC34C=CCN(C(C)(C)C)C(=O)[C@H]3N(CCCCCCO)C(=O)[C@@H]4C2C(=O)O1 (some centres not stated)", 0.0444),
    ("O=C1O[C@H](c2ccccc2)[C@H](c2ccccc2)N2[C@H]1[C@@H](C(=O)O)[C@]1(C(=O)Nc3ccc(C#CCCO)cc31)[C@H]2c1ccc(O)cc1", -0.378),
    ("COCCOC(=O)N1C(=O)[C@@]2(c3cc(C#CC4(O)CCCCCC4)ccc31)[C@H](c1ccc(O)cc1)N1[C@H](c3ccccc3)[C@H](c3ccccc3)OC(=O)[C@H]1[C@@H]2C(=O)Nc1nc2ccccc2s1", 1.35),
    ("CCOC(=O)C[C@H]1[C@H](OC(=O)c2cc3ccccc3oc2=O)[C@@H](NC(=O)C2CCCCC2)c2cc(OCCCO)ccc2N1C(=O)c1ccccc1", 0.995),
    ("CC(C)(C)OC(=O)CC[C@]12N=C(c3ccc(OCCCO)cc3)O[C@H]1c1ccccc1N(CCS(=O)(=O)c1ccccc1)C2=O", 0.905),
    ("CCCCCC1=C2CNC(CCC)(C(=O)OC)C=C2C(C)C1=O (configuration not stated)", 0.439),
    ("CN1C(=O)C2C=CC(C(O)c3ccc(I)cc3)N(N3CCCCC3)C2C1=O (configuration not stated)", 1.07),
    ("O=C1O[C@H](c2ccccc2)[C@H](c2ccccc2)N2[C@H]1[C@@H](C(=O)N1CCN(c3ncccn3)CC1)[C@]1(C(=O)Nc3ccc(C#CC4=CCCCC4)cc31)[C@H]2c1ccc(O)cc1", 0.76),
    ("CC(C)C(CO)N1C(=O)[C@@H]2[C@H]3C(=O)OCC=C[C@H]3OC23C=CCN(C(C)C)C(=O)[C@@H]13 (some centres not stated)", -0.321),
    ("O=C1O[C@H](c2ccccc2)[C@H](c2ccccc2)N2[C@H]1[C@@H](C(=O)Nc1nc3ccccc3s1)[C@]1(C(=O)Nc3ccc(C#CC4(O)CCCCCC4)cc31)[C@H]2c1ccc(OCCO)cc1", 1.24),
    ("COC(=O)[C@@]1(Cc2ccc(OC)cc2)[C@H]2c3cc(C(=O)N(C)C)n(Cc4cccc5ccccc45)c3C[C@H]2CN1C(=O)c1ccccc1", 1.04),
    ("COCCn1c(C(=O)N2CCCC2)cc2c1C[C@H]1CN(C(=O)c3ccccc3)[C@@](Cc3ccc(F)cc3)(C(=O)OC)[C@@H]21", -0.149),
    ("CC(C)[C@@H](CO)NC(=O)[C@H]1[C@@H](c2ccccc2)N(c2ccccc2)O[C@@H]1C", -0.123),
    ("CC(=O)NCCCC[C@@H]1NC(=O)[C@@H]2C[C@H](C(=O)NCCCCCCNC(=O)CS)[C@H](c3cccc(OCCO)c3)N2C1=O", 0.639),
    ("CCc1oc(CC[C@@H](CO)NC(=O)NCCn2cc(C3(O)CCCCC3)nn2)c(C(=O)OC)c1C(=O)OC", 1.13),
    ("C=CCNC(=O)[C@@H]1[C@H]2C(=O)O[C@H](c3ccccc3)[C@H](c3ccccc3)N2[C@H](c2ccc(OCCO)cc2)[C@@]12C(=O)Nc1ccc(C#Cc3ccc(OC)cc3)cc12", 0.939),
    ("CC(C)OC(=O)C=C1C[C@@H](c2ccccc2C(F)(F)F)O[C@@H](c2ccccc2C(F)(F)F)O1", 0.417),
    ("COCCOC(=O)N1C(=O)[C@@]2(c3cc(C#CCCO)ccc31)[C@H](c1ccc(OCCO)cc1)N1[C@H](c3ccccc3)[C@H](c3ccccc3)OC(=O)[C@H]1[C@@H]2C(=O)N1CCN(c2ncccn2)CC1", 1.03),
]
